- measurement-notes: chemical genetic growth profiling, strain panel (AID 1159580);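 note: tested at 20 µM; growth read once vehicle control cultures reached saturation at 30 °C; 1 = growth at the plate median or of vehicle wells; lower values mean less growth of the strain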
- condition-summary: S. cerevisiae deletion strains, growth OD, locus YHR027C, strain rpn1, hits give low values
The campaign covered roughly 5,500 compounds. About 2,000 (36%) were called active. Roughly 18% stayed inconclusive and do not appear here. Some of the results follow.
Measured normalized growth values are reported for all entries that follow.
// return just the number, without any unit appended

Some compounds with recorded normalized growth:
compound	numeric-value
COc1cc(/C=C/C(=O)N2CCC=CC2=O)cc(OC)c1OC	0.995
CCOc1ccc(C(=O)c2cc(O)c(OC)c(OC)c2O)cc1	0.991
COc1cc(O)cc(OC)c1OC	0.993
CC(=O)Oc1cc2c(c(C)c1OC(C)=O)CC1OC13C2(C)CCC1(C)C2CC(C)(C(=O)O)CCC2(C)CCC13C (stereo unspecified)	1.01
CC1(C)S[C@@H]2[C@H](NC(=O)Cc3ccccc3)C(=O)N2[C@H]1C(=O)O	1.01
COC(=O)[C@]1(C)CC[C@]2(C)CC[C@]3(C)C4=CC=C5C(=CC(=O)C(O)=C5C)[C@]4(C)CC[C@@]3(C)[C@@H]2C1	0.514

Report normalized growth for NC(=O)N1c2ccccc2C=Cc2ccccc21 please.
1.02

Give its normalized growth value. Item: CCOc1ccc(C(=O)c2ccc(OC)c(O)c2O)cc1
1.01

Please look up its normalized growth: Cc1c(NC(=O)c2cccnc2)c(=O)n(-c2ccccc2)n1C
1.01

Looking for the measured normalized growth of Cc1onc(-c2ccccc2Cl)c1C(=O)N[C@@H]1C(=O)N2[C@@H]1SC(C)(C)[C@@H]2C(=O)O , can you help?
1.02

What does the data say about its normalized growth? Entry: c1ccc([C@H]2CN3CCSC3=N2)cc1
1.01

Record request: normalized growth value, item CCOc1ccc(NC(C)=O)cc1
1

Bench note: what normalized growth did CCOc1ccc(C(=O)c2ccc(O)c(O)c2O)cc1 show?
0.869

I am curious: what normalized growth value has been reported for CC(=O)OCC(=O)[C@@]12OC3(CCCC3)O[C@@H]1CC1C3CCC4=CC(=O)C=C[C@]4(C)[C@@]3(F)[C@@H](O)C[C@@]12C (stereo partly specified) ?
1.02

Name the reported normalized growth value associated with the compound C=C(C)[C@H]1Cc2c(ccc3c2O[C@@H]2COc4cc(OC)c(OC)cc4[C@@H]2C3=O)O1
0.975

Given the compound O=c1oc2c(O)c(O)cc3c(=O)oc4c(O)c(O)cc1c4c23 , what is its reported normalized growth?
0.539

For the compound shown here, COc1ccc(C(=O)c2ccc(O)cc2)c(O)c1O , give the reported normalized growth.
0.988

Query: normalized growth; subject: CO[C@H]1C[C@H](O[C@H]2[C@H](C)[C@@H](OC3O[C@H](C)C[C@H](N(C)C)[C@H]3OC(C)=O)[C@@H](C)C[C@]3(CO3)C(=O)[C@H](C)[C@@H](OC(C)=O)[C@@H](C)[C@@H](C)OC(=O)[C@@H]2C)O[C@@H](C)[C@@H]1OC(C)=O (stereo partly specified)
0.995

Field request: normalized growth | item: COc1ccc(C(=O)c2ccccc2)c(O)c1O
0.959

Entry COc1cc2c(cc1O)CCNC2C (stereo unspecified) has what normalized growth?
1

Recorded normalized growth for O=C1c2ccccc2C(=O)C1c1ccccc1 , please?
0.997

###

- measurement-notes: chemical genetic growth profiling, strain panel (AID 1159580)
- condition-summary: S. cerevisiae deletion strains, growth OD, locus YGR229C, strain SMI1, hits give low values
The campaign covered roughly 5,500 compounds. About 2,000 (36%) were called active. Roughly 18% stayed inconclusive and do not appear here. The list shows a part of the results.
endpoint-name: normalized growth
Output: the number by itself.

Check out these entries, answers already filled in.
molecule	normalized growth
CC(=O)N[C@@H](Cc1c[nH]c2ccccc12)C(=O)O	1.01
CN1C(=O)CCS(=O)(=O)C1c1ccc(Cl)cc1 (stereo unspecified)	1.03
CC(=O)CC1CCCCN1 (stereo unspecified)	1.03
C=C(C)[C@H]1Cc2c(ccc3c2O[C@@H]2COc4cc(OC)c(OC)cc4[C@@H]2C3=O)O1	0.924

Fill blank: measured normalized growth of the molecule NCCc1c[nH]c2ccccc12 is ____.
1.01

Data request, read-out normalized growth, for CC(=O)Oc1cccc2c1C(=O)c1c(OC(C)=O)cc(C(=O)O)cc1C2=O
1.02

###

The entries below are paired with their reported normalized growth.
- measurement-notes: chemical genetic growth profiling, strain panel (AID 1159580);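 note: tested at 20 µM; growth read once vehicle control cultures reached saturation at 30 °C; 1 = growth at the plate median or of vehicle wells; lower values mean less growth of the strain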
- condition-summary: S. cerevisiae strains, growth OD, strain wild type, hits give low values
Hit rate of the full screen: of about 5,500 compounds, about 2,000 (36%) were called active. Roughly 18% stayed inconclusive and do not appear here. The list shows a part of the results.
Give the figure by itself; no unit, no explanation.

Solved cases below.
molecule	numeric-value
CC(C)(C)c1ccc(-c2cc(N)c(C(N)=O)s2)cc1	0.989
NCC1OC(OC2C(CO)OC(OC3C(O)C(N)CC(N)C3OC3OC(CO)C(O)CC3N)C2O)C(N)C(O)C1OC1OC(CO)C(O)C(O)C1O (stereo not given)	1
CCOC([O-])=Nc1c[n+](N2CCOCC2)no1	1.02
COc1cccc(C(=O)N/N=C(/C)c2ccccc2O)c1	0.777
C[C@]12CCC(=O)C=C1CCC1C2C(=O)C[C@@]2(C)C1CC[C@]2(O)C(=O)CO (stereo not given in full)	0.995

Which normalized growth value is on record for O=C(COC(=O)c1ccccc1C(=O)c1ccccc1)c1ccccc1 ?
1

Please give the measured normalized growth for this molecule: COc1cc2c(cc1OC)[C@@H]1C(=O)c3ccc4c(c3O[C@@H]1CO2)CC(C(C)C)O4 (stereo not given in full)
0.987

What does the data say about its normalized growth? Entry: O=C(CCc1ccc(O)cc1)c1c(O)cc(O)cc1O[C@@H]1O[C@H](CO)[C@@H](O)[C@H](O)[C@H]1O
1.02

Recorded normalized growth of c1cc(C2CCCCC2)ccc1C1CCCCC1 , please.
0.973

Could you tell me which normalized growth is on file for CCCc1nc2c(C)cc(-c3nc4ccccc4n3C)cc2n1Cc1ccc(-c2ccccc2C(=O)O)cc1 ?
1

###

- measurement-notes: chemical genetic growth profiling, strain panel (AID 1159580);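 note: tested at 20 µM; growth read once vehicle control cultures reached saturation at 30 °C; 1 = growth at the plate median or of vehicle wells; lower values mean less growth of the strain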
- condition-summary: S. cerevisiae deletion strains, growth OD, locus YPL051W, strain arl3, hits give low values
In all, about 5,500 compounds went through this assay and about 2,000 (36%) were called active. Inconclusive results (about 18%) are left out. This is one part of the list.
endpoint-name: normalized growth
Reply with the value as a number alone.

Worked set:
compound	normalized growth
CO[C@H]1C[C@H](O[C@H]2[C@H](C)[C@@H](OC3O[C@H](C)C[C@H](N(C)C)[C@H]3OC(C)=O)[C@@H](C)C[C@]3(CO3)C(=O)[C@H](C)[C@@H](OC(C)=O)[C@@H](C)[C@@H](C)OC(=O)[C@@H]2C)O[C@@H](C)[C@@H]1OC(C)=O (some centres undefined)	0.992
NC(=O)N1c2ccccc2C=Cc2ccccc21	1.03
COC1(C)CCC2OC2(C)CCC2C1CC2(C)C (centres undefined)	0.976

Fill blank: measured normalized growth of the compound COc1cc2c(cc1O)CCNC2C (centres undefined) is ____.
0.985

###

- measurement-notes: chemical genetic growth profiling, strain panel (AID 1159580);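 note: tested at 20 µM; growth read once vehicle control cultures reached saturation at 30 °C; 1 = growth at the plate median or of vehicle wells; lower values mean less growth of the strain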
- condition-summary: S. cerevisiae deletion strains, growth OD, locus YKL160W, strain elf1, hits give low values
Among all 5,500 compounds or so, about 2,000 (36%) were called active. Roughly 18% stayed inconclusive and do not appear here. Some of the results follow. Where a SMILES comes first, the peptide text is derived from it. Side-chain parts run from the residue outwards. [ ]: non-standard residue; d: D form. The star is where a group is joined. X1 = CCC(C)C(N)C1=NC(C(=O)*)CS1; Orn = NCCC[CH](N)C(=O)O
endpoint-name: normalized growth
Format: numeric value only, no unit, no commentary.

molecule	normalized growth
CCC(C)C(N)C1=NC(C(=O)NC(CC(C)C)C(=O)NC(CCC(=O)O)C(=O)NC(C(=O)NCCCCC2NC(=O)C(CC(N)=O)NC(=O)C(CC(=O)O)NC(=O)C(Cc3cnc[nH]3)NC(=O)C(Cc3ccccc3)NC(=O)C(C(C)CC)NC(=O)C(CCCN)NC2=O)C(C)CC)CS1 (stereo not drawn) (cyclo(DNK([Ile-Glu-Leu-X1])[Orn]IFH); configuration not given here)	1.02
CC(C)CC1NC(=O)C(CCCN)NC(=O)C(C(C)C)NC(=O)C2CCCN2C(=O)C(Cc2ccccc2)NC(=O)C(CC(C)C)NC(=O)C(CCCN)NC(=O)C(C(C)C)NC(=O)C2CCCN2C(=O)C(Cc2ccccc2)NC1=O (stereo not given) (cyclo(FPV[Orn]LFPV[Orn]L); configuration not given here)	1.02
COC(=O)C[C@H]1C(C)(C)[C@@H](O)[C@@H]2CC3=C4C=C(OC)O[C@@H](c5ccoc5)[C@]4(C)CCC3[C@@]1(C)C2=O (stereo not given in full)	1.01
O=c1c(O)c(-c2ccc(O)c(O)c2)oc2cc(O)ccc12	0.982

Continue with the molecule presented below.
Which measured normalized growth value corresponds to CC[C@H]1CN2CCc3cc(OC)c(OC)cc3C2C[C@@H]1CC1NCCc2cc(OC)c(OC)cc21 (stereo not given in full) ?
1.01
